- Test system: HaCat
- protocolText: Cytotoxic Profiling of Annotated Libraries Using Quantitative High-Throughput Screening (AID 1296008); note: % is set by controls: 0 for no effect and ±100 for the full control effect; nearly all actives have a fitted effect of over 60% in size
- conditionInfo: Five cell lines viability, CellTiter-Glo ATP luminescence, 48-72 h; hits give low values
- Method: Cell-based phenotypic screening is a commonly used approach to discover biological pathways, novel drug targets, chemical probes and high-quality hit-to-lead molecules. […] A pintool (Kalypsys) was used to transfer 23 nL of compound solution to the 1536-well assay plates. […] Plates were left at room temperature for 10 min before imaging the ATP-coupled luminescence using a ViewLux microplate imager (PerkinElmer, Waltham, MA).
Inconclusive results are not listed. Active and inactive are the calls of the source. Calls come from the whole dose curve; as a rule, active = well fitted inhibition curve with a large enough effect; inconclusive = small, poorly fitted or top-dose-only effect; inactive = flat fitted curve, though single readings scatter.
propertyName: max response

Which max response reading was recorded for the compound C[C@]12CC[C@@H]3[C@@H](CCC4=CC(=O)CC[C@@H]43)[C@@H]1CC[C@@H]2OC(=O)CCc1ccccc1 ?
-22.8% (inactive)

Which max response reading was recorded for the compound Nc1c(Cl)c(Cl)c(Cl)c(Cl)c1Cl ?
-3.9% (inactive)

Which max response reading was recorded for the compound O=C(Oc1ccc([N+](=O)[O-])cc1)N1CCC(C(O)(c2ccc3c(c2)OCO3)c2ccc3c(c2)OCO3)CC1 ?
-5.43% (inactive)

Which max response reading was recorded for the compound C[C@]12CC[C@H]3[C@@H](CCC4=CC(=O)CC[C@@]43C)[C@H]1CC[C@H]2OC(=O)CCC1CCCC1 ?
4.09% (inactive)

###

- protocolText: Quantitative High-Throughput drug screen in 47 multiple myeloma cell lines against the NCATS MIPE library collection: XG6_PLB cell viability assay (AID 1919865); note: nearly all actives have a fitted effect of over 40% in size
- conditionInfo: XG6 myeloma viability, CellTiter-Glo ATP luminescence, 48 h; series mostly up to 45.8 µM
Records with an inconclusive call do not appear. Active and inactive are the calls of the source. The call rests on the fitted dose curve; in most records, active means well fitted cell-killing curve with a large enough effect; inconclusive means small, poorly fitted or top-dose-only effect, or effect the other way; inactive means no such curve, though single readings can be large or run the other way.
Select the correct class. Options are active, inactive and nothing else.

# lookup: test call for CC[C@@H]1[C@@H](C)O[C@@](O)([C@@H](C)[C@H](O)[C@H](C)[C@H]2OC(=O)C=CC=C[C@@H](C)[C@@H]([C@@H](C)[C@@H](O)[C@H](C)[C@@]3(O)C[C@H](O[C@H]4C[C@H](O)[C@H](O)[C@H](C)O4)[C@H](CC)[C@@H](C)O3)OC(=O)C=CC=C[C@@H]2C)C[C@H]1O[C@H]1C[C@H](O)[C@H](O)[C@H](C)O1
active

# lookup: test call for Oc1ccc2c3c1O[C@H]1c4[nH]c5c(c4C[C@@]4(O)[C@@H](C2)N(CC2CC2)CC[C@]314)C[C@@]1(O)[C@H]2Cc3ccc(O)c4c3[C@@]1(CCN2CC1CC1)[C@H]5O4
inactive

# lookup: test call for CC(C)[C@H]1C(=O)N[C@H](CO)Cc2c[nH]c3cccc(c23)N1C
active

# lookup: test call for COc1ccc(N(C(=O)Oc2c(C)cccc2C)c2ccnc(Nc3ccc(N4CCN(C)CC4)cc3)n2)c(OC)c1
active

# lookup: test call for CC(=O)OCC1=C(C(=O)O)N2C(=O)[C@@H](N)[C@@H]2SC1
inactive

# lookup: test call for O=C(O)CNC(=O)c1c(O)c2ccccc2n(Cc2ccccc2)c1=O
inactive

###

- Test system: P94_40
- protocolText: qHTS profiling for inhibitors of Plasmodium falciparum proliferation (AID 504749); note: nearly all actives have a fitted effect of over 60% in size
- conditionInfo: P. falciparum in erythrocytes, SYBR Green DNA, 72 h; series mostly up to 28.7 µM
Results filed as inconclusive are left out. Calls of active or inactive are those of the source. The call rests on the fitted dose curve; in most records, active means well fitted inhibition curve with a large enough effect; inconclusive means small, poorly fitted or top-dose-only effect; inactive means flat fitted curve, though single readings scatter.
Select the correct class. Options are t (active), f (inactive) and nothing else.

# lookup: test call for CCCCCCCCCC(CC)c1ccc(S(=O)(=O)O)cc1 (stereo unspecified)
f

# lookup: test call for NC(=O)CN1CC(O)CC1=O (stereo unspecified)
f

# lookup: test call for CC(=O)[O][Hg][c]1ccccc1
t

# lookup: test call for CC(C)NC(C)Cc1ccc(I)cc1 (stereo unspecified)
f

# lookup: test call for O=C(O)COc1ccccc1
f

# lookup: test call for COC(=O)[C@@H](N)CCCN=C(N)N[N+](=O)[O-]
f

# lookup: test call for CCCN1CCC[C@H](c2cccc(O)c2)C1
f

# lookup: test call for Cc1ccc(Cl)c(O)c1
f

# lookup: test call for c1ccc(C2(c3ccccc3)CC2C2=NCCN2)cc1 (stereo unspecified)
f

# lookup: test call for C=CCN1CC[C@]23CCCCC2[C@H]1Cc1ccc(O)cc13 (stereo partly specified)
f

# lookup: test call for CN1C2CCC1CC(OC(=O)c1cc(Cl)cc(Cl)c1)C2 (stereo unspecified)
f

Where do these numbers come from? They come from PubChem BioAssay (NCATS).
